assay: 14-day oral gavage toxicokinetic study in rats; format: in vivo; conditions: both sexes, rat, plasma, po, 30 mg/kg, Mean Compound 1 Plasma Concentration, rats, oral 30 mg/kg, Day 14, 12 h, Overall
ENDPOINT: concentration at 12 h
Report the figure along with its unit, number first.

query: I'd like to know its concentration at 12 h. The molecule in question is CN1CCN(c2ccc(Nc3ncc4cc5n(c4n3)C3(CCCCC3)CNC5=O)nc2)CC1
result: 1800 ng/mL

====

assay: 14-day oral gavage toxicokinetic study in rats; assay type: in vivo; settings: male, rat, plasma, po, 5 mg/kg, oral 5 mg/kg, Study Day 1, Male
ENDPOINT: AUC(0-t) (ng·h/mL)
Give just the number in ng·h/mL; leave the unit off.

query: Return reported AUC(0-t); argument: CN1CCN(c2ccc(Nc3ncc4cc5n(c4n3)C3(CCCCC3)CNC5=O)nc2)CC1 [Compound 1]
result: 4680

====

assay: 14-day oral gavage toxicokinetic study in rats; format: in vivo; details: male, rat, plasma, po, 30 mg/kg, Mean Compound 1 Plasma Concentration, rats, oral 30 mg/kg, Day 14, 0.5 h, Male
ENDPOINT: concentration at 0.5 h (ng/mL)
Enter your answer as a number in ng/mL; do not include the unit.

query: May I ask what concentration at 0.5 h has been recorded for CN1CCN(c2ccc(Nc3ncc4cc5n(c4n3)C3(CCCCC3)CNC5=O)nc2)CC1 ?
result: 993

====

test: 14-day oral gavage toxicokinetic study in rats; format: in vivo; settings: female, rat, plasma, po, 30 mg/kg, Individual Compound 1 Plasma Concentration, rats, daily oral 30 mg/kg, Day 1, Female, 4 h
ENDPOINT: concentration at 4 h (ng/mL)
Note: unit ng/mL is implicit; provide only the numeric part.

query: What concentration at 4 h value was documented for this compound, CN1CCN(c2ccc(Nc3ncc4cc5n(c4n3)C3(CCCCC3)CNC5=O)nc2)CC1 [Compound 1] ?
result: 2570

====

experiment: 14-day oral gavage toxicokinetic study in rats; format: in vivo; conditions: male, rat, plasma, po, 5 mg/kg, oral 5 mg/kg, Study Day 1, Male
ENDPOINT: Tmax
# do not omit the unit; it follows the number

query: Form field: reported Tmax of CN1CCN(c2ccc(Nc3ncc4cc5n(c4n3)C3(CCCCC3)CNC5=O)nc2)CC1
result: 4 h

====

experiment: 14-day oral gavage toxicokinetic study in rats; assay type: in vivo; conditions: female, rat, plasma, po, 2 mg/kg, Mean Compound 1 Plasma Concentration, rats, oral 2 mg/kg, Day 1, 1 h, Female
ENDPOINT: concentration at 1 h (ng/mL)
Provide the reading as a plain figure in ng/mL.

query: Would you kindly share the measured concentration at 1 h for CN1CCN(c2ccc(Nc3ncc4cc5n(c4n3)C3(CCCCC3)CNC5=O)nc2)CC1 ?
result: 91.4

====

Test: Single escalating dose IV infusion pharmacokinetics in healthy volunteers (noncompartmental)
Format: in vivo, human
Conditions: both sexes, human, plasma, iv, 24 mg/m^2, Compound 1 Concentration, Cohort 3, 24 mg/m^2 IV; Time 1.0 h; r7-9=Subjects 1-3,r11=Mean,r13=Min,r14=Median,r15=Max,r17=Geometric Mean
Protocol: Forty-five subjects have enrolled in the study. Analysis of plasma concentration versus time data for calculation of standard pharmacokinetic (PK) parameters following intravenous infusion administration was conducted using Phoenix WinNonlin version 6.3 using a nominal infusion duration and scheduled blood sampling times. Random subject numbers were assigned by the bioanalytical laboratory to retain the blind. […]
ENDPOINT: concentration at 1 h (ng/mL)
Field format: number, assumed ng/mL, no unit text.

query: Fill in the blank: the reported concentration at 1 h of CN1CCN(c2ccc(Nc3ncc4cc5n(c4n3)C3(CCCCC3)CNC5=O)nc2)CC1 [Compound 1] is ____.
result: 39.2
